# Assay overview: qHTS assay for small molecule activators of the heat shock response signaling pathway - cell viability counter screen (AID 743209); also: nearly all actives have a fitted effect of over 50% in size
# Condition set: HSE-bla HeLa viability, CellTiter-Glo luminescence, 5 h; series mostly up to 62.6 µM
Records with an inconclusive call do not appear. Active and inactive are the calls of the source. Calls follow the shape of the dose curve; as a rule, active = well fitted cell-killing curve with a large enough effect in the repeat runs; inconclusive = weak or mixed curves, or effect the other way; inactive = no such curve, though single readings can be large or run the other way.
Readout kind: outcome

# annotated cases, reported outcome shown
C=CCOC(=O)c1ccccc1C(=O)OCC=C | inactive
OCc1cccnc1 | inactive
O=S(=O)(O)c1ccc2ccccc2c1 | inactive
CCCCCCCCCCCCOCCO | inactive
CC(=O)CC(=O)Nc1ccccc1 | inactive
O=C(O)CCCCCCCCCCC(=O)O | inactive

The recorded outcome for `O=C(O)c1ccc(C(=O)O)cc1` is inactive

The recorded outcome for O=C(O)CC(C(=O)O)C(CC(=O)O)C(=O)O (stereo not drawn) is inactive

FYI, the data here is from PubChem BioAssay (Tox21).
